IC50 values for the compounds below.
# tgt: Type-B CCK receptor (Cavia porcellus, UniProt H0VZC5)
# Construct: Cortical and pancreatic membranes were prepared as described; from tissue; host or cells: guinea pig cerebral cortex membranes
# Sequence (H0VZC5 1-426): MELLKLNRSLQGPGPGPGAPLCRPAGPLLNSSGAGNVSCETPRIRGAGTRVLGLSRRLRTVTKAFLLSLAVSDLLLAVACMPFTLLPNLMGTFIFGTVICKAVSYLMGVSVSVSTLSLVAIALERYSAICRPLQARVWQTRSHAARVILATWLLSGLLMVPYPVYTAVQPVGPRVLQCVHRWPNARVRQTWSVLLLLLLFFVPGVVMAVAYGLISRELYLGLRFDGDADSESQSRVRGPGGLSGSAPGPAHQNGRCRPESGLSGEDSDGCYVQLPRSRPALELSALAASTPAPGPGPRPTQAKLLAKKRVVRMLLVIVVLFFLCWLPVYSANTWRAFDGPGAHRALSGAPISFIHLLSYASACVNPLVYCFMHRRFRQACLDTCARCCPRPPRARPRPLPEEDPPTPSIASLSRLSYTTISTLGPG
# assay.protocol: Radioligand binding of [125I]BH-CCK-8 in guinea pig cerebral cortical membrane preparations
# experimental.setup: IC50 (nM) 125I-BH-CCK-8 Type-B receptor, guinea pig cortical membranes, 30° C., 150 minutes
*1 amine or outer side, *2 acyl side, *3 side chain or, on linkers, in order; H or OH if unused. Where a SMILES comes first, the peptide text is derived from it. Side-chain parts run from the residue outwards. [ ]: non-standard residue; d: D form. The star is where a group is joined. ξ: configuration not given here. ξαMeW = CC(N)(Cc1c[nH]c2ccccc12)C(=O)O; NMeF = CN[C@@H](Cc1ccccc1)C(=O)O; Cha = N[C@@H](CC1CCCCC1)C(=O)O; NMeD = CN[C@@H](CC(=O)O)C(=O)O; NH(2-Me-phenyl) = Cc1ccccc1N*; Boc = CC(C)(C)OC(=O)*; CO = O=C([*:1])[*:2]; Bz = O=C(c1ccccc1)*; Moc = COC(=O)*
Numbers only here, please. The scale is nM.

Input line: Returns the measured IC50 for the input compound. Input: Cc1ccccc1NC(=O)NCCCC[C@H](NC(=O)C(C)(N)Cc1c[nH]c2ccccc12)C(=O)N[C@@H](CC(=O)O)C(=O)N(C)[C@@H](Cc1ccccc1)C(N)=O (single isomer, unassigned; isomer a) [Example 98]
Output line: 3200

Input line: Returns the measured IC50 for the input compound. Input: COC(=O)N[C@@H](Cc1c[nH]c2ccccc12)C(=O)N[C@@H](CCCCNC(=O)Nc1ccccc1C)C(=O)N(C)[C@@H](CC(=O)O)C(=O)N(C)[C@@H](Cc1ccccc1)C(N)=O [Example 124] (Moc-WK([CO-NH(2-Me-phenyl)])[NMeD][NMeF]-NH2)
Output line: 2600

Input line: Returns the measured IC50 for the input compound. Input: Cc1ccccc1NC(=O)NCCCC[C@H](NC(=O)C(C)(N)Cc1c[nH]c2ccccc12)C(=O)N[C@@H](CC(=O)O)C(=O)N[C@@H](Cc1ccccc1)C(N)=O (stereo partly drawn) [Example 97] (H-[ξαMeW]K([CO-NH(2-Me-phenyl)])DF-NH2)
Output line: 2600

Input line: Returns the measured IC50 for the input compound. Input: Cc1ccccc1NC(=O)NCCCC[C@H](NC(=O)[C@H](Cc1c[nH]c2ccccc12)NC(=O)OC(C)(C)C)C(=O)N[C@@H](CC(=O)O)C(=O)N[C@@H](CC1CCCCC1)C(N)=O [Example 116] (Boc-WK([CO-NH(2-Me-phenyl)])D[Cha]-NH2)
Output line: 4000

Input line: Returns the measured IC50 for the input compound. Input: Cc1ccccc1NC(=O)NCCCC[C@H](NC(=O)[C@H](Cc1c[nH]c2ccccc12)NC(=O)c1ccccc1)C(=O)N(C)[C@@H](CC(=O)O)C(=O)N[C@@H](Cc1ccccc1)C(N)=O [Example 90] (Bz-WK([CO-NH(2-Me-phenyl)])[NMeD]F-NH2)
Output line: 5100

* * *

IC50 values for the molecules below.
# tgt: Type-B CCK receptor (Cavia porcellus)
# Construct: Cortical and pancreatic membranes were prepared as described; from tissue; host or cells: guinea pig cerebral cortex membranes
# assay.protocol: Radioligand binding of [125I]BH-CCK-8 in guinea pig cerebral cortical membrane preparations
# experimental.setup: IC50 (nM) 125I-BH-CCK-8 Type-B receptor, guinea pig cortical membranes, 30° C., 150 minutes
Where a name gives a salt, the structure may show the parent alone. *1 amine or outer side, *2 acyl side, *3 side chain or, on linkers, in order; H or OH if unused. Where a SMILES comes first, the peptide text is derived from it. Side-chain parts run from the residue outwards. [ ]: non-standard residue; d: D form. The star is where a group is joined. Butanoyl(3,3-Me2) = CC(C)(C)CC(=O)*; NMeD = CN[C@@H](CC(=O)O)C(=O)O; NH(2-Me-phenyl) = Cc1ccccc1N*; CO = O=C([*:1])[*:2]; Tfa = O=C(C(F)(F)F)*

// known answers, use as guide
Input line: Returns the measured IC50 for the input molecule. Input: Cc1ccccc1NC(=O)NCCCC[C@H](NC(=O)[C@H](Cc1c[nH]c2ccccc12)NC(=O)CC(C)(C)C)C(=O)N(C)[C@@H](CC(=O)O)C(=O)N[C@@H](Cc1ccccc1)C(N)=O [Example 88B] ({Butanoyl(3,3-Me2)}-WK([CO-NH(2-Me-phenyl)])[NMeD]F-NH2)
Output line: > 10000 nM

Input line: Returns the measured IC50 for the input molecule. Input: Cc1ccccc1NC(=O)NCCCC[C@H](NC(=O)[C@H](Cc1c[nH]c2ccccc12)NC(=O)OC(C)(C)C)C(=O)N[C@@H](CC(=O)O)C(=O)N1CCC[C@]1(Cc1ccccc1)C(N)=O
Output line: > 10000 nM

Input line: Returns the measured IC50 for the input molecule. Input: Cc1ccccc1NC(=O)NCCCC[C@H](NC(=O)[C@H](Cc1c[nH]c2ccccc12)NC(=O)C(F)(F)F)C(=O)N(C)[C@@H](CC(=O)O)C(=O)N[C@@H](Cc1ccccc1)C(N)=O [Example 88A] (Tfa-WK([CO-NH(2-Me-phenyl)])[NMeD]F-NH2)
Output line: > 10000 nM

Next molecule, please.
Input line: Returns the measured IC50 for the input molecule. Input: CC(=O)N[C@@H](Cc1c[nH]c2ccccc12)C(=O)N[C@@H](CCCCNC(=O)Nc1ccccc1C)C(=O)N(C)[C@@H](CC(=O)O)C(=O)N[C@@H](Cc1ccccc1)C(N)=O [Example 86] (Ac-WK([CO-NH(2-Me-phenyl)])[NMeD]F-NH2)
Output line: > 10000 nM

Taken from patent US5270302A.
